Provenance of the data: PubChem BioAssay

Assay: antimalarial activity against Dd2 strain (AID 2302);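 also: 0% = DMSO untreated growth and 100% = chloroquine plus artemisinin killed control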
Settings: P. falciparum Dd2 in RBCs, LDH growth readout, 72 h; at 2 µM
Activity calls are given as the source filed them.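 The calls were made as follows: active = growth inhibition above 50% at the single 2 µM test dose, taken to imply half-maximal potency below 2 µM; inactive = the rest.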
One label from this list, please: active, inactive

O=C(Cn1c(SCc2cccc(F)c2F)cc(=O)c2ccccc21)N(CCc1cnc[nH]1)Cc1ccc(-c2ccc(C(F)(F)F)cc2)cc1 ... active
Nc1ncc(-c2ccsc2)c2ccc(-c3cnc[nH]3)cc12 ... active
CN1CCC(NCc2cccc(-c3ccc(S(=O)(=O)NCc4ccccc4)cc3)c2)CC1 ... active

Hello, I am checking results. What call was entered for Cc1c(CC(=O)NCCC2CCN(CCCCCNC(=O)/C=C/c3ccc(Cl)c(Cl)c3)CC2)sc2ccc(Cl)cc12 ?
inactive

Hello, I am checking results. What call was entered for O=C(/C=C/c1ccc(Cl)c(Cl)c1)NCCCCCN1CCC(CCNC(=O)/C=C/c2ccc(Cl)c(Cl)c2)CC1 ?
active

Hello, I am checking results. What call was entered for O=C(NC1CCN(c2ccnc3cc(Cl)ccc23)C1)c1cccc(F)c1 (configuration not stated) ?
active

###

Experiment: inhibition of 3D7 malaria parasite growth – strain 3D7 (AID 2306);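 also: 0% = DMSO wells and 100% = chloroquine plus artemisinin control wells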
Details: P. falciparum 3D7 erythrocytic growth, LDH absorbance, 72 h; at 2 µM; active compounds read high
valueKind: growth inhibition (%)
Numbers only; they are read as %.

COc1ccccc1C1CC(c2ccccc2)=NN1C(=O)c1ccccc1 (configuration not stated) ... 100
CC(C)CCNCc1ccc(OCc2cccc(C(=O)Nc3ccccc3)c2)c(I)c1 ... 100

Find the recorded growth inhibition belonging to COc1ccc(-c2c3c(=O)n(C)c(=O)n(C)c3c3nnc4ccccc4n23)cc1 and report it.
96

Find the recorded growth inhibition belonging to Cc1c(Cl)ccc2sc(N3CCN(C(=O)c4ccc([N+](=O)[O-])o4)CC3)nc12 and report it.
96

Find the recorded growth inhibition belonging to CCN(CC)CCn1c(=N)n(CC(O)c2ccc(Cl)c(Cl)c2)c2ccccc21 (configuration not stated) and report it.
99

Find the recorded growth inhibition belonging to O=C(CN1CCN(C(=O)c2ccco2)CC1)Nc1ccccc1Br and report it.
97

Find the recorded growth inhibition belonging to CC(C)c1cc(N)c2cc(NC(=O)COCC(=O)Nc3ccc4nc(C(C)C)cc(N)c4c3)ccc2n1 and report it.
95

###

Experiment: antimalarial activity against Dd2 strain (AID 2302);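 also: 0% = DMSO untreated growth and 100% = chloroquine plus artemisinin killed control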
Conditions: P. falciparum Dd2 in RBCs, LDH growth readout, 72 h; at 2 µM; active compounds read high
Kind request: treat 80% as inclusive, so growth inhibition at 80% or higher is true, anything lower is false.

CSc1nc2nc(C)c(Cc3cccc(C(F)(F)F)c3)c(C)n2n1 ... true
CC[C@@H]([C@@H](Cc1cc2ccccc2s1)C(=O)N[C@@H](CCCCNC(=O)OCc1ccccc1)C(=O)Nc1ccccn1)N(O)C=O ... false
FC(F)(F)c1ccc2nc(-c3ccc(-c4cccc(CN5CCN(CCN6CCOCC6)CC5)c4)cc3)[nH]c2c1 ... false
COc1ccc(-c2nc(NC(=O)CS(=O)(=O)c3ccc(F)cc3)sc2C)cc1 ... true
COc1ccc(Nc2nc(C)cc(NCc3ccc(-c4c(C)noc4C)cc3)n2)cc1 ... false
CC(=O)c1sc(NC(=O)Nc2ccc(C)cc2C)nc1C ... false
CCOc1cc(C2C(C(=O)OC(C)C)=C(C)NC3=C2C(=O)CC(c2ccc(Cl)cc2)C3)ccc1OC(C)=O (stereo unspecified) ... false
OC(CNc1cccc(Cl)c1)Cn1c2ccc(Cl)cc2c2cc(Cl)ccc21 (stereo unspecified) ... false

Query compound follows.
Could you please find out whether O=C(c1cccc(-c2noc(C(F)(F)F)n2)c1)N1CCN(C(=O)c2ccc3cc[nH]c3c2)CC1 has growth inhibition that meets 80% or exceeds it?
true
